TARGET_ENTITY: Adrenergic receptor alpha-2 (Homo sapiens, UniProt P08913+P18825+P18089)
ASSAY_REMARKS: Displacement of [3H]clonidine from Adrenergic alpha-2 receptor
Format: protein assay
MEASURED_METRIC: Ki (µM)
Only the number, expressed in µM, is required.

Provide measured Ki on Adrenergic receptor alpha-2 (Homo sapiens, UniProt P08913+P18825+P18089) for Ic1ccc2c(c1)CNCC2 please. 0.22

Provide measured Ki on Adrenergic receptor alpha-2 (Homo sapiens, UniProt P08913+P18825+P18089) for O=[N+]([O-])c1ccc2c(c1)CNC(C(F)(F)F)C2 (racemic) please. 1400

Provide measured Ki on Adrenergic receptor alpha-2 (Homo sapiens, UniProt P08913+P18825+P18089) for FC(F)(F)C1Cc2ccccc2CN1 (stereo unspecified) please. 400

Provide measured Ki on Adrenergic receptor alpha-2 (Homo sapiens, UniProt P08913+P18825+P18089) for NS(=O)(=O)c1ccc2c(c1)CNC(CO)C2 (stereo unspecified) please. 1400

Provide measured Ki on Adrenergic receptor alpha-2 (Homo sapiens, UniProt P08913+P18825+P18089) for CC(C)C1Cc2ccc([N+](=O)[O-])cc2CN1 (racemic) please. 36
